Organism: Rattus norvegicus
Assay: Open TG-GATES - Regimen: Single
Assay type: toxicity, organism-based, Sprague-Dawley
Design: regimen Single, gender Male, age 6 weeks
Conditions: in vivo, po, 30 mg/kg, 24 h, tissue Plasma, route gavage, dose level Middle

COMPOUND	AST
CN(C)CCCN1c2ccccc2CCc2ccc(Cl)cc21 [CLOMIPRAMINE]	76.8 IU/L
CC1=C(/C=C/C(C)=C/C=C/C(C)=C/CO)C(C)(C)CCC1 [RETINOL]	75.8 IU/L
CN(C)CCN(Cc1cccs1)c1ccccn1	74.8 IU/L
CN(C)CCCN1c2ccccc2CCc2ccccc21 [IMIPRAMINE]	69.6 IU/L

* * *

Species on record: Rattus norvegicus
Experiment: Open TG-GATES - Regimen: Daily Repeat
Assay type: toxicity, organism-based, Sprague-Dawley
Design: regimen Daily Repeat, gender Male, age 6 weeks
Details: in vivo, po, 100 mg/kg, 72 h, tissue Kidney, route gavage, dose level Low, time 3 day
Readings of KIDNEY_TOTAL for the listed molecules

MOLECULE	KIDNEY_TOTAL [g]
COC1=CC(=O)C[C@@H](C)[C@]12Oc1c(Cl)c(OC)cc(OC)c1C2=O	2
CCOc1ccc(NC(=O)CC(C)O)cc1 (stereo not given)	2.1
COc1ccc2[nH]c([S+]([O-])Cc3ncc(C)c(OC)c3C)nc2c1 (stereo not given)	2.2
CCOC(=O)CCC(=O)O[C@H]1[C@H](O[C@@H]2[C@@H](C)[C@H](O[C@H]3C[C@@](C)(OC)[C@@H](O)[C@H](C)O3)[C@@H](C)C(=O)O[C@H](CC)[C@@](C)(O)[C@H](O)[C@@H](C)C(=O)[C@H](C)C[C@@]2(C)O)O[C@H](C)C[C@@H]1N(C)C [ERYTHROMYCIN ETHYLSUCCINATE]	2
NC(N)=Nc1nc(CSCCC(N)=NS(N)(=O)=O)cs1	2

* * *

Readings of KIDNEY_R for the listed compounds
Organism: Rattus norvegicus
Assay: Open TG-GATES - Regimen: Single
Format: toxicity, organism-based, Sprague-Dawley
Set-up: regimen Single, gender Male, age 6 weeks
Conditions: in vivo, po, 300 mg/kg, 6 h, tissue Kidney, route gavage, dose level Middle
MEASURED ATTRIBUTE: KIDNEY_R (g)

COMPOUND	RECORDED RESULT
COC1=CC(=O)C[C@@H](C)[C@]12Oc1c(Cl)c(OC)cc(OC)c1C2=O	1
CCOC(=O)CCC(=O)O[C@H]1[C@H](O[C@@H]2[C@@H](C)[C@H](O[C@H]3C[C@@](C)(OC)[C@@H](O)[C@H](C)O3)[C@@H](C)C(=O)O[C@H](CC)[C@@](C)(O)[C@H](O)[C@@H](C)C(=O)[C@H](C)C[C@@]2(C)O)O[C@H](C)C[C@@H]1N(C)C [ERYTHROMYCIN ETHYLSUCCINATE]	1
NC(N)=Nc1nc(CSCCC(N)=NS(N)(=O)=O)cs1	0.9
COc1ccc2[nH]c([S+]([O-])Cc3ncc(C)c(OC)c3C)nc2c1 (centres undefined)	1

* * *

Species on record: Rattus norvegicus
Experiment: Open TG-GATES - Regimen: Daily Repeat
Type: toxicity, organism-based, Sprague-Dawley
Set-up: regimen Daily Repeat, gender Male, age 6 weeks
Details: in vivo, po, 1000 mg/kg, […], tissue Liver, route gavage, dose level High, time 28 day
Outcome: T for LIVER of at least 20 g; F for anything lower.

COMPOUND	CLASSIFICATION
NC(N)=Nc1nc(CSCCC(N)=NS(N)(=O)=O)cs1 [FAMOTIDINE]	F
COc1ccc2[nH]c([S+]([O-])Cc3ncc(C)c(OC)c3C)nc2c1 (stereo not given) [OMEPRAZOLE]	T
COC1=CC(=O)C[C@@H](C)[C@]12Oc1c(Cl)c(OC)cc(OC)c1C2=O [GRISEOFULVIN]	F
CCOC(=O)CCC(=O)O[C@H]1[C@H](O[C@@H]2[C@@H](C)[C@H](O[C@H]3C[C@@](C)(OC)[C@@H](O)[C@H](C)O3)[C@@H](C)C(=O)O[C@H](CC)[C@@](C)(O)[C@H](O)[C@@H](C)C(=O)[C@H](C)C[C@@]2(C)O)O[C@H](C)C[C@@H]1N(C)C [ERYTHROMYCIN ETHYLSUCCINATE]	F
CCOc1ccc(NC(=O)CC(C)O)cc1 (stereo not given) [BUCETIN]	F

* * *

Species: Rattus norvegicus
Assay: Open TG-GATES - Regimen: Single
Type: toxicity, organism-based, Sprague-Dawley
Design: regimen Single, gender Male, age 6 weeks
Conditions: in vivo, po, 1000 mg/kg, 6 h, tissue Plasma, route gavage, dose level High
Threshold 70 mg/dL. TC below it: 1. TC at it or above: 0.

COMPOUND	CLASSIFICATION
NC(N)=Nc1nc(CSCCC(N)=NS(N)(=O)=O)cs1 [FAMOTIDINE]	0
COC1=CC(=O)C[C@@H](C)[C@]12Oc1c(Cl)c(OC)cc(OC)c1C2=O [GRISEOFULVIN]	0
COc1ccc2[nH]c([S+]([O-])Cc3ncc(C)c(OC)c3C)nc2c1 (stereo not given) [OMEPRAZOLE]	0
CC(C)OC(=O)C(C)(C)Oc1ccc(C(=O)c2ccc(Cl)cc2)cc1 [FENOFIBRATE]	1

* * *

Organism: Rattus norvegicus
Assay: Open TG-GATES - Regimen: Single
Type: toxicity, organism-based, Sprague-Dawley
Set-up: regimen Single, gender Male, age 6 weeks
Conditions: in vivo, po, 30 mg/kg, 24 h, tissue Liver, route gavage, dose level Middle
MEASURED ATTRIBUTE: LIVER (g)

MOLECULE	MEASURED ATTRIBUTE	RECORDED RESULT
CN(C)CCCN1c2ccccc2CCc2ccccc21	LIVER	9.2
CN(C)CCN(Cc1cccs1)c1ccccn1	LIVER	9.3
CC1=C(/C=C/C(C)=C/C=C/C(C)=C/CO)C(C)(C)CCC1	LIVER	10.1
CN(C)CCCN1c2ccccc2CCc2ccc(Cl)cc21	LIVER	10.5

* * *

Species on record: Rattus norvegicus
Experiment: Open TG-GATES - Regimen: Daily Repeat
Assay type: toxicity, organism-based, Sprague-Dawley
Design: regimen Daily Repeat, gender Male, age 6 weeks
Settings: in vivo, po, 10 mg/kg, […], tissue Kidney, route gavage, dose level Low, time 28 day
Readings of KIDNEY_TOTAL for the listed compounds
MEASURED ATTRIBUTE: KIDNEY_TOTAL (g)

COMPOUND	MEASURED ATTRIBUTE	UNIT LABEL	RECORDED RESULT
CN(C)CCCN1c2ccccc2CCc2ccccc21	KIDNEY_TOTAL	g	2.7
CC1=C(/C=C/C(C)=C/C=C/C(C)=C/CO)C(C)(C)CCC1	KIDNEY_TOTAL	g	2.6
CC(C)OC(=O)C(C)(C)Oc1ccc(C(=O)c2ccc(Cl)cc2)cc1 [FENOFIBRATE]	KIDNEY_TOTAL	g	2.9
CN(C)CCN(Cc1cccs1)c1ccccn1	KIDNEY_TOTAL	g	2.5

* * *

Species: Rattus norvegicus
Assay: Open TG-GATES - Regimen: Single
Assay type: toxicity, organism-based, Sprague-Dawley
Parameters: regimen Single, gender Male, age 6 weeks
Conditions: in vivo, po, 10 mg/kg, 9 h, tissue Plasma, route gavage, dose level Low

COMPOUND	UNIT LABEL	PL
CN(C)CCCN1c2ccccc2CCc2ccc(Cl)cc21 [CLOMIPRAMINE]	mg/dL	138.2
CN(C)CCCN1c2ccccc2CCc2ccccc21 [IMIPRAMINE]	mg/dL	137.4
CC1=C(/C=C/C(C)=C/C=C/C(C)=C/CO)C(C)(C)CCC1 [RETINOL]	mg/dL	127.4
CN(C)CCN(Cc1cccs1)c1ccccn1	mg/dL	129
CC(C)OC(=O)C(C)(C)Oc1ccc(C(=O)c2ccc(Cl)cc2)cc1 [FENOFIBRATE]	mg/dL	124

* * *

Organism: Rattus norvegicus
Test: Open TG-GATES - Regimen: Daily Repeat
Type: toxicity, organism-based, Sprague-Dawley
Design: regimen Daily Repeat, gender Male, age 6 weeks
Conditions: in vivo, po, 300 mg/kg, […], tissue Plasma, route gavage, dose level Middle, time 7 day

MOLECULE	UNIT LABEL	TC
COc1ccc2[nH]c([S+]([O-])Cc3ncc(C)c(OC)c3C)nc2c1 (stereo not given)	mg/dL	89
COC1=CC(=O)C[C@@H](C)[C@]12Oc1c(Cl)c(OC)cc(OC)c1C2=O	mg/dL	70.4
CCOC(=O)CCC(=O)O[C@H]1[C@H](O[C@@H]2[C@@H](C)[C@H](O[C@H]3C[C@@](C)(OC)[C@@H](O)[C@H](C)O3)[C@@H](C)C(=O)O[C@H](CC)[C@@](C)(O)[C@H](O)[C@@H](C)C(=O)[C@H](C)C[C@@]2(C)O)O[C@H](C)C[C@@H]1N(C)C [ERYTHROMYCIN ETHYLSUCCINATE]	mg/dL	76
CCOc1ccc(NC(=O)CC(C)O)cc1 (stereo not given)	mg/dL	91.2
NC(N)=Nc1nc(CSCCC(N)=NS(N)(=O)=O)cs1	mg/dL	83.8
